The measured values listed here are drawn from patent US6288042.

test_target: T1, SIV integrase (Simian immunodeficiency virus, UniProt P05896 P05896:1156-1448)
T1 sequence: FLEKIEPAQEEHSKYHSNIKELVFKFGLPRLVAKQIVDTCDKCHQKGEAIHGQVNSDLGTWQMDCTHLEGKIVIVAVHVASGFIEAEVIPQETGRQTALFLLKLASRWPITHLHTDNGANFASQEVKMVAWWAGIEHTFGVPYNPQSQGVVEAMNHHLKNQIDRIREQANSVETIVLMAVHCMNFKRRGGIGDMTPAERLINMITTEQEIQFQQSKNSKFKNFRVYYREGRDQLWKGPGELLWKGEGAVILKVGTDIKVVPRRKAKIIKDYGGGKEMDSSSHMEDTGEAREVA
assay_text: inhibition; 3'-processing
applied_conditions: G4
parameter_measured: IC50 (nM)
API: value field is a number in nM; no unit string.

Record GTGGTGGGTGGGTGGGT (structured_DNA, PS at first and last linkage (pPT)) [T30177 (AR177)] . Reported IC50: 420
